- System: Mycobacterium tuberculosis
- TEST_PROTOCOL: Antimycobacterial activity against isoniazid and rifampicin-resistant Mycobacterium tuberculosis MTB2556 clinical isolate by MTT assay
- Format: functional
Measured MIC of individual entries

Consider the following illustrative entries.
>>> reading("COc1ccc(-c2c3c(nc4[nH]nc(-c5ccc(Cl)cc5)c24)-c2ccccc2C(=O)C3=O)cc1")
"8 µg/mL"
>>> reading("Cc1nn(-c2ccccc2)c2nc3c(c(-c4ccc(Cl)cc4)c12)C(=O)C(=O)c1ccccc1-3")
"> 32 µg/mL"

Continue with the next compound.
I have this compound here, O=C1C(=O)c2ccccc2C2=C1C(c1ccccc1)c1c(-c3ccccc3)n[nH]c1N2 (stereo not drawn) , and I need its recorded MIC.
> 32 µg/mL
